Target: mTORC1 (Homo sapiens (Human), UniProt P42345+P62942)
Assay: mTORC1 inhibition, AlphaLISA of Phospho-p70 S6 kinase (p70S6K pT389) in PC-3 cells
Conditions: inhibition of p70S6K pT389 levels
pIC50: −log10 of the molar value.
The following molecules are listed with their measured pIC50 values.

Some entries whose results are on file:
molecule	pIC50
COC1CC(CC(C)C2CC(=O)C(C)C=C(C)C(O)C(OC)C(=O)C(C)CC(C)C=CC=CC=C(C)C(OCC3CC(F)(F)C3)CC3CCC(C)C(O)(O3)C(=O)C(=O)N3CCCCC3C(=O)O2)CCC1O (stereo not shown)	< 9.10
COCCOCCOCCOC1CC2CCC(C)C(O)(O2)C(=O)C(=O)N2CCCCC2C(=O)OC(C(C)CC2CCC(OCCCS(C)(=O)=O)C(OC)C2)CC(=O)C(C)C=C(C)C(O)C(OC)C(=O)C(C)CC(C)C=CC=CC=C1C (mixture of isomers)	9.10 to 10.00
CCOC(=O)COC1CCC(CC(C)C2CC(=O)C(C)C=C(C)C(O)C(OC)C(=O)C(C)CC(C)C=CC=CC=C(C)C(NS(=O)(=O)CCOC)CC3CCC(C)C(O)(O3)C(=O)C(=O)N3CCCCC3C(=O)O2)CC1OC (mixture of isomers)	< 9.10

QUERY: // fetch mTORC1 (Homo sapiens (Human), UniProt P42345+P62942) pIC50 for COCCS(=O)(=O)NC1CC2CCC(C)C(O)(O2)C(=O)C(=O)N2CCCCC2C(=O)OC(C(C)CC2CCC(OCCCS(C)(=O)=O)C(OC)C2)CC(=O)C(C)C=C(C)C(O)C(OC)C(=O)C(C)CC(C)C=CC=CC=C1C (mixture of isomers)
RESULT: 9.10 to 10.00

###

Biological target: mTORC1 (Homo sapiens (Human), UniProt P42345+P62942)
Test: mTORC1 inhibition, AlphaLISA of Phospho-p70 S6 kinase (p70S6K pT389) in PC-3 cells
Details: inhibition of p70S6K pT389 levels
measured.endpoint: IC50

compound	assay.value
COC1C(=O)C(C)CC/C=C/C=C/C=C(\C)C(CCO)C[C@H]2CC[C@H](C)[C@](O)(O2)C(=O)C(=O)N(C)C(C)C(=O)OC([C@H](C)C[C@@H]2CC[C@@H](OCCCS(C)(=O)=O)[C@H](OC)C2)CC(=O)C(C)/C=C(\C)C1O (some centres unmarked)	100 to 800 pM

Let us move to another entry and its IC50.
QUERY: Any idea what IC50 was measured for COCCOCCS(=O)(=O)NC1CC2CCC(C)C(O)(O2)C(=O)C(=O)N2CCCCC2C(=O)OC(C(C)CC2CCC(OCCCO)C(OC)C2)CC(=O)C(C)C=C(C)C(O)C(OC)C(=O)C(C)CC(C)C=CC=CC=C1C (centres unmarked) [Compound 3] ?
RESULT: > 800 pM

###

The following compounds are listed with their measured IC50 values.
Target: mTORC1 (Homo sapiens (Human), UniProt P42345+P62942)
Test: mTORC1 inhibition, AlphaLISA of Phospho-p70 S6 kinase (p70S6K pT389) in PC-3 cells
Conditions: inhibition of p70S6K pT389 levels

Some entries whose results are on file:
compound	IC50
COCCOC1CC2CCC(C)C(O)(O2)C(=O)C(=O)N2CCCCC2C(=O)OC(C(C)CC2CCC(OCC(=O)O)C(OC)C2)CC(=O)C(C)C=C(C)C(O)C(OC)C(=O)C(C)CC(C)C=CC=CC=C1C (stereo not shown)	> 0.8 nM
COC1CC(CC(C)C2CC(=O)C(C)C=C(C)C(O)C(OC)C(=O)C(C)CC(C)C=CC=CC=C(C)C(OC3CC3)CC3CCC(C)C(O)(O3)C(=O)C(=O)N3CCCCC3C(=O)O2)CCC1OCCCO (stereo not shown) [Compound 52]	0.1 to 0.8 nM
COC1C[C@H]2CC[C@H](C)[C@](O)(O2)C(=O)C(=O)N(C)C(C)C(=O)OC([C@H](C)C[C@@H]2CC[C@@H](OCCCS(C)(=O)=O)[C@H](OC)C2)CC(=O)C(C)/C=C(\C)C(O)C(OC)C(=O)C(C)CC/C=C/C=C/C=C/1C (stereo partly shown)	< 0.1 nM

Let us move to another entry and its IC50.
QUERY: // fetch mTORC1 (Homo sapiens (Human), UniProt P42345+P62942) IC50 for CO[C@@H]1C[C@H](C[C@@H](C)[C@@H]2CC(=O)[C@H](C)/C=C(\C)[C@@H](O)[C@@H](OC)C(=O)[C@H](C)C[C@H](C)/C=C/C=C/C=C(\C)[C@H](OCC3CCC3)C[C@@H]3CC[C@@H](C)[C@@](O)(O3)C(=O)C(=O)N3CCCC[C@H]3C(=O)O2)CC[C@H]1OCCCS(C)(=O)=O
RESULT: > 0.8 nM
